property_name: melting point

Worked examples, 3 compounds total:
CCC(C(=O)O)N(C(=O)c1cn(-c2cc(C(F)(F)F)ccc2Cl)nc1C)c1ccc(OCC(C)(C)C)c(C#N)c1 (stereo not given)    134 to 135 °C
CC(C)(C)C1=CC(=C(C#N)C#N)C=C(c2cccs2)S1(=O)=O    164 to 165 °C
CCCCc1nnc(-c2ccc([N+](=O)[O-])cc2)o1    68 to 70 °C

Could you share which melting point value was measured for O=C1CCC(N2Cc3c(CNC(=O)c4ccncc4)cccc3C2=O)C(=O)N1 (stereo not given) ?
282 to 284 °C

Let us now turn to COc1ccc(N(CCN2CCC(C(=O)c3ccc(F)cc3)CC2)C(=O)c2ccc(N)cc2)c(OC)c1
135 to 138 °C

Let us now turn to CC1CN(c2n[nH]c(-c3ccc(Cl)cc3)c2-c2ccncn2)CCN1C (stereo not given)
212 to 214 °C

Let us now turn to O=C(Nc1cc(Cl)cc(Cl)c1)c1ccccc1O
218 to 219 °C

Let us now turn to CN(C)CCNc1ccc([N+](=O)[O-])c2sc3ccc(O)cc3c(=O)c12
> 300 °C

Let us now turn to CCOC(=O)c1c(C(C)Cl)nc2c(C(F)(F)F)cccc2c1O (stereo not given)
104 °C

---

Entries annotated with measured melting point

Worked examples, 4 compounds total:
CSc1ncc(Oc2ccc(Cl)cc2)c(=O)[nH]1    232 to 233 °C
Cc1nc2c(c3c1[nH]c1cc(Cl)ccc13)C(=O)CC(C)(C)C2    248 to 250 °C
O=C(NCCCN1CCN(Cc2ccccc2)CC1)Nc1ccccc1    45 to 47 °C
COc1cc2c(cc1OCc1ccccc1)C1Cc3c(Cl)cc(OC)c(OCCOCCO)c3CN1CC2 (configuration not stated)    122 °C

Could you share which melting point value was measured for CN(CCCCCC(=O)O)c1ccc(Br)cc1C=O ?
95 to 96 °C

Let us now turn to O=C(NC1C2CC3CC(C2)CC1C3)c1cc(-c2ccc(Cl)cc2)n(-c2ccc(Cl)cc2Cl)n1 (configuration not stated)
203 °C

Let us now turn to CCCCCCCCCCCCNC(=O)c1cc(Br)c(OCC(=O)O)c(-c2ccccc2F)c1
128 to 138 °C

Let us now turn to CC(=O)c1ccc(S(=O)(=O)N2CCCC2c2ccc(F)cc2)cc1 (racemic)
148 °C

Let us now turn to CN(C)c1ccc(C=CC(O)Cc2ccccc2)cc1 (configuration not stated)
158 to 162 °C

---

property_name: melting point

Worked examples, 5 compounds total:
CNc1cccc(-c2ccnc3c(C(=O)c4cccs4)cnn23)c1    188 to 190 °C
CN(C)CCOC(=O)c1cc2cccc(OCc3ccccc3)c2[nH]1    113 to 115 °C
Cc1cc(O)c(Oc2ccccc2C#N)cc1-c1ccsc1    155 to 159 °C
CC(C)(c1ccccc1)C(Sc1ccc(Cl)cc1)n1ccnc1 (stereo not given)    77 to 79 °C
O=c1[nH]c(=O)n(C2CC(F)C(COC(c3ccccc3)(c3ccccc3)c3ccccc3)O2)cc1C#CI (stereo not given)    73 °C

Could you share which melting point value was measured for CCCCCCCCCCCCCCCCCCOc1cc(NC(C)=O)cc(N(CC(=O)OCc2ccccc2)CC(=O)OCc2ccccc2)c1 ?
89 to 90 °C

Let us now turn to O=[N+]([O-])c1cc(Cl)c(OCCCO)c([N+](=O)[O-])c1OCCCO
90 °C

Let us now turn to CC(C)(C)c1nc(C=O)nc(C(C)(C)C)c1O
187 to 189 °C

Let us now turn to CC1(C)Cc2sc3c(c2C1)CCC3=O
60 to 62 °C

Let us now turn to O=C(O)c1nc2c(=O)[nH]c3cc(C(F)(F)F)ccc3n2c1Cn1cnc(Cl)c1Cl
213 to 215 °C

Let us now turn to S=c1[nH]cnc2c(Br)csc12
328 °C

Let us now turn to O=S(=O)(c1ccccc1)n1ccnc1
82 to 83 °C

Let us now turn to O=S1(=O)c2cccc3cccc(c23)N1CCCCN1CC=C(c2c[nH]c3ccccc23)CC1
203 °C

Let us now turn to O=C(CCCCCCCCCCC(=O)Oc1cc(O)cc(O)c1)Oc1cc(O)cc(O)c1
140 to 145 °C

Let us now turn to CC(=O)OCC(C)C1=CCC2C3CC=C4CC(OC(C)=O)CC(OC(C)=O)C4(C)C3CCC12C (stereo not given)
116 to 118 °C

Let us now turn to CC1(C)NC(=O)N(c2cc(Cl)c(F)c(Cl)c2)C1=O
175 to 176 °C

Let us now turn to COC1(C)CCc2ccc(O)cc2O1 (stereo not given)
107 to 108 °C

Let us now turn to COC(=O)c1ccc(-c2cnc3[nH]c(=O)n(CC4CCCCC4)c3n2)cc1
253 to 255 °C

Let us now turn to CC(=O)Nc1scc(C(C)(C)C)c1C(N)=O
251 °C

Let us now turn to CCCCNC(=O)c1ccc(Cl)c(-n2nc(CCCC)n(Cc3ccc(-c4ccccc4S(=O)(=O)NC(=O)c4ccccc4Cl)cc3F)c2=O)c1
218 to 220 °C

---

Entries annotated with measured melting point

Worked examples, 2 compounds total:
O=C(C=C(c1ccccc1)c1ccc(Cl)cc1)Nc1ccc(C(=O)O)cc1    220 to 223 °C
CCOCc1nc2c(N)nc3cc(OCc4cccc(C)c4)ccc3c2n1CC(C)C    207 to 208 °C

Could you share which melting point value was measured for Cc1[nH]cnc1C=C1CC2CCCn3c2c(c2ccccc23)C1=O (stereo not given) ?
289 to 290 °C

Let us now turn to CN(C)c1ccc2c(c1)CN1C(=Nc3cccnc3)SC[C@@H]1C2
138 °C

Let us now turn to O=C(CCCl)Nc1ccc(C(=O)O)cc1
225 °C

Let us now turn to CCCCCCCCCc1ccc(C(CCCC=O)C(=O)OC)cc1 (stereo not given)
38 to 39 °C

Let us now turn to Cc1oc2c(C)c(Cc3ccccc3)c(C3CC(=O)NC(=O)C3)cc2c1C
138 °C

Let us now turn to COc1cc(Nc2nccc(-c3ccc(NCCO)nc3)n2)cc(OC)c1OC
123 °C

Let us now turn to CNC(=S)C1(c2cccc(C)n2)CCCS1 (stereo not given)
121 °C

Let us now turn to CC[C@H]1c2cc(F)ccc2-c2ccccc2N1C(=O)c1ccc(O)cc1
103 to 104 °C

---

property_name: melting point

CCOC(=O)C1=C(COCCNC(N)=S)NC(C)=C(C(=O)OC)C1c1ccccc1Cl (stereo not given)    204 °C
Cn1c(=O)sc2cc(N3C[C@H](C(=O)NCCO)OC3=O)ccc21    217 to 219 °C
COC(=O)c1ccc(-c2ccc(C(OC)OC)cc2)cc1    76 to 77 °C
CC(C)(CO)c1ccc(C(O)CCCN2CCC(=C3c4ccccc4CCc4ccccc43)CC2)cc1 (stereo not given)    157 to 159 °C

# context switch: different molecule, same melting point
Could you share which melting point value was measured for O=C1OC(c2ccccc2)=NC1=Cc1c(O)ccc2ccccc12 ?
228 to 229 °C

---

property_name: melting point

Worked examples, 4 molecules total:
CC(C)(C)COc1ccc(NC(=O)c2cnn(CC(F)(F)F)c2)cc1C#N    159 to 160 °C
Fc1ccc(OCCCN2CCN(c3ncc4ccccc4n3)CC2)cc1    126 to 128 °C
COC(=O)C1Cc2ccccc2N1C(=O)C(C)(C)CSC(C)=O (stereo not given)    136 to 138 °C
COC[C@H](C)NC(=O)c1c[nH]c2ncc(-c3nn(C)c4cc(F)c(F)cc34)nc12    295 to 297 °C

# context switch: different molecule, same melting point
Could you share which melting point value was measured for CC1(C)CCC(C)(C)c2cc(-c3ccccc3C=O)ccc21 ?
85 to 87 °C

---

property_name: melting point

CC(=O)SCC(CC(N)=O)C(=O)O (stereo unspecified)    110 to 111 °C
CN1CC2CN(C)CC(C1)C2OCc1ccccc1 (stereo unspecified)    70 to 75 °C
COC(=O)Nc1nc2ccc(Sc3ccccc3)cn2c1CN(C)C    172 to 175 °C
CC(=O)Nc1ccnc(-c2ccncc2)n1    218 to 220 °C
Nc1cccc(N)c1Cl    82 to 83.5 °C

Could you share which melting point value was measured for CN(C)CCN(C)C(=O)Cn1nc(-c2ccccc2O)nc1-c1ccccc1O ?
172 to 174 °C

Let us now turn to N=C(N)Nc1nc(-c2ccccc2[N+](=O)[O-])cs1
176 to 178 °C

Let us now turn to Cc1cc(N2CCN(c3ccccc3)CC2)c(C#N)c(Cl)n1
139 to 140 °C

Let us now turn to Cc1nc2c3c(ccn2c1C)C(=O)[C@H](OC(=O)C(C)(C)C)[C@@H](c1ccccc1)N3
185 to 187 °C

Let us now turn to COc1ccc(N2CCN(C[C@@H](O)COc3cccc(-c4noc5ccsc45)c3)CC2)cc1
110 to 113 °C

Let us now turn to COc1cc(CC(=O)O)ccc1OCc1nc(-c2ccccc2)oc1C
176 to 177 °C
